# Protocol Text: Pharmacokinetic evaluation of Compound 22 in female BALB/c mice in different vehicles
# Type: in vivo
# Reported Conditions: mouse, plasma, po, 100 mg/kg, 100 mg/kg p.o. single, Group 2, vehicle 40% (2-hydroxypropyl)-β-cyclodextrin
Measurement Kind: AUC(0-inf) (ng·h/mL)
Kindly answer with a numeric value in ng·h/mL, unit omitted.

// AUC(0-inf) lookup, key: "Nc1nc(NCCc2ccc(NC3COC3)cc2)nc2nc(-c3ccco3)nn12"
28500

###

# Protocol Text: Pharmacokinetics of Compounds 22, 27 and 40 in SD rats after oral administration for 7 consecutive days
# Format: in vivo
# Reported Conditions: male, Sprague-Dawley (SD), rat, plasma, po, 30 mg/kg, male SD rats, oral 30 mg/kg once a day; Day 1; read-out: drug exposure AUC0-t
Measurement Kind: AUC(0-t) (ng·h/mL)
Numeric only. Scale: ng·h/mL

Quick one: AUC(0-t) of Nc1nc(NCCc2ccc(NC3COC3)cc2)nc2nc(-c3ccco3)nn12 [Compound 22] ?
6630

Form field: reported AUC(0-t) of COCCNc1ccc(CCNc2nc(N)n3nc(-c4ccco4)nc3n2)cc1 [Compound 27]
29600

# input compound: Cn1nnc(-c2ccc(CCNc3nc(N)n4nc(-c5ccco5)nc4n3)cc2)n1 [Compound 40] ; wanted: its AUC(0-t)
5150
